target: UniProtKB P56817; experiment: Time-Resolved FRET Assay: A homogeneous time-resolved FRET assay was used to determine IC50 values for inhibitors of the soluble human BACE1 catalytic domain. The assay monitored the increase of 620nm fluorescence that resulted from BACE1 cleavage of an APPswedish APPswe mutant peptide FRET substrate (QSY7-EISEVNLDAEFC-Europium-amide).
Sequence (P56817 whole entry, the tested form may be a part): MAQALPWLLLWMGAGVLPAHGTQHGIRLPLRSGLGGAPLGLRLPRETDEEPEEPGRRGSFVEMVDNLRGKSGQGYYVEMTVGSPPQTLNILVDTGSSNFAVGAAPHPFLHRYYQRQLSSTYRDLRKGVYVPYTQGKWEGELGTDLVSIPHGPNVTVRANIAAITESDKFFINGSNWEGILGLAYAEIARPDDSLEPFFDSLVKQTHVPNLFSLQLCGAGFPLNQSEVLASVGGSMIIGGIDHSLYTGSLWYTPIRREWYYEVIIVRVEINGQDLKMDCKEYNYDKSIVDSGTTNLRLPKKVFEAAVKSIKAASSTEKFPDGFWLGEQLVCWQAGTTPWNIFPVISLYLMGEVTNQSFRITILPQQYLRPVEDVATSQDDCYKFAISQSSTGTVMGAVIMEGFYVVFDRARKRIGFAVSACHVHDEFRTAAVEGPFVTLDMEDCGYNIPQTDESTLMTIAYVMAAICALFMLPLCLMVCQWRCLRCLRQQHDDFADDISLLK
measure: Ki (nM)
Return type: number; implicit unit nM.

(Q) Report measured Ki; entry is COc1nc(N2C[C@H]3C(=O)N(C)C(=N)N[C@@]3(c3cc(F)ccc3Cl)C2)nc(C)c1F
(A) 8.9
